measurement description: Caspase-3/7 induction in CHO-K1 cells by small molecules, qHTS cell viability counter screen (AID 1346979); also: nearly all actives have a fitted effect of over 35% in size
protocol conditions: CellTiter-Fluor fluorescence, 17 h; series mostly up to 92.4 µM
Records with an inconclusive call do not appear. Activity calls are given as the source filed them. Calls follow the shape of the dose curve; as a rule, active = well fitted cell-killing curve with a large enough effect in the repeat runs; inconclusive = weak or mixed curves, or effect the other way; inactive = no such curve, though single readings can be large or run the other way.
Answer with one of the outcomes active, inactive

# molecule, category label
measured = [
    ("Cc1cc(C)c(C)cc1C", "inactive"),
    ("O=[N+]([O-])c1ccc(/C=C/c2ccc([N+](=O)[O-])cc2S(=O)(=O)O)c(S(=O)(=O)O)c1", "inactive"),
    ("CCCCCCCCCCCCCCO", "inactive"),
    ("C[Si](O[Si](C)(C)C)O[Si](C)(C)C", "inactive"),
    ("O=P(OC(CCl)CCl)(OC(CCl)CCl)OC(CCl)CCl", "active"),
]

Q: What outcome does the record of this test show for CSCCC=O ?
A: inactive

Q: What outcome does the record of this test show for C#C[C@]1(O)CC[C@H]2[C@@H]3CCC4=CC(=O)CC[C@@H]4[C@H]3CC[C@@]21C ?
A: active

Q: What outcome does the record of this test show for O=C(O)c1cc(=O)c2c(OCC(O)COc3cccc4oc(C(=O)O)cc(=O)c34)cccc2o1 ?
A: inactive

Q: What outcome does the record of this test show for CCCCCC/C(C=O)=C\c1ccccc1 ?
A: inactive

Q: What outcome does the record of this test show for N[C@@H](Cc1cc(I)c(Oc2cc(I)c(O)c(I)c2)c(I)c1)C(=O)O ?
A: inactive

Q: What outcome does the record of this test show for CC(=O)CC(=O)Nc1ccccc1C ?
A: inactive

Q: What outcome does the record of this test show for O=C(Oc1ccccc1)c1ccccc1 ?
A: inactive

Q: What outcome does the record of this test show for CCCCCCCCCCCCS ?
A: inactive

Q: What outcome does the record of this test show for CC(=O)Nc1cccc(O)c1 ?
A: inactive

Q: What outcome does the record of this test show for COc1ccc(Nc2ccccc2)c(C)c1 ?
A: inactive

Q: What outcome does the record of this test show for CCc1ccc(CCOc2ccc(CC3SC(=O)NC3=O)cc2)nc1 (stereo unspecified) ?
A: inactive
